MEASUREMENT_NOTES: Hygroscopicity test: weight gain of solid sample in humidity chamber at RH=80%
Assay type: physicochemical
CONDITION_SET: RH = 80%, 24 hrs
Values of Weight gain during 24 hrs at RH = 80%,% strictly less than 4% map to yes, and values of at least 4% map to no.

-- ask API: query returns whether the compound falls strictly under 4% in Weight gain during 24 hrs at RH = 80%,%. Query: CCOC(=O)[C@@H](N)Cc1ccc(O)c(O)c1.O=C(O)C(O)C(O)C(=O)O [Example 5, LDEE Hydrogen L(+)Tartrate]
-- reply no

-- ask Next entry: CCOC(=O)C(N)Cc1ccc(O)c(O)c1.O=C(O)C(O)C(O)C(=O)O (mixture of isomers) [Example 7, LDEE (LD)Tartrate]
-- reply no

-- ask Same question for CCOC(=O)[C@@H](N)Cc1ccc(O)c(O)c1 please.
-- reply yes

-- ask Another compound to look at: CCOC(=O)[C@@H](N)Cc1ccc(O)c(O)c1.O=C(O)C(O)C(O)C(=O)O [Example 4, LDEE L(+)Tartrate]
-- reply no

-- ask Moving on to CCOC(=O)[C@@H](N)Cc1ccc(O)c(O)c1.CCOC(=O)[C@@H](N)Cc1ccc(O)c(O)c1.O.O.O=C(O)CCC(=O)O [Example 23, LDEE Succinate Dihydrate]
-- reply yes

-- ask And the next one, CCOC(=O)[C@@H](N)Cc1ccc(O)c(O)c1.O=P(O)(O)O [Example 11, LDEE Phosphate] ?
-- reply no

-- ask Then this compound: CCO.CCOC(=O)[C@@H](N)Cc1ccc(O)c(O)c1.CCOC(=O)[C@@H](N)Cc1ccc(O)c(O)c1.O=C(O)CCCCC(=O)O [Example 21, LDEE Adipate Ethanolate]
-- reply no

-- ask Now the same for CC(=O)O.CCOC(=O)[C@@H](N)Cc1ccc(O)c(O)c1 [Example 2, LDEE Acetate]
-- reply no

-- ask Do the same for CCCCCCCC(=O)O.CCOC(=O)[C@@H](N)Cc1ccc(O)c(O)c1 [Example 19, LDEE Octanoate] please
-- reply yes

====

Assignment: determine reported pH of water solution for the given compounds.
MEASUREMENT_NOTES: pH of water solution
Format: physicochemical

-- ask Which pH of water solution is reported for this compound? CCO.CCOC(=O)[C@@H](N)Cc1ccc(O)c(O)c1.CCOC(=O)[C@@H](N)Cc1ccc(O)c(O)c1.O=C(O)CCC(=O)O [Example 22, LDEE Succinate Ethanolate]
-- reply 6

-- ask Repeat with CCCCCCCC(=O)O.CCOC(=O)[C@@H](N)Cc1ccc(O)c(O)c1 [Example 19, LDEE Octanoate]
-- reply 6.0-6.5

-- ask Same for CCOC(=O)[C@@H](N)Cc1ccc(O)c(O)c1
-- reply 8.2

-- ask Queued: CCOC(=O)[C@@H](N)Cc1ccc(O)c(O)c1.CCOC(=O)[C@@H](N)Cc1ccc(O)c(O)c1.O.O.O=C(O)CCC(=O)O [Example 23, LDEE Succinate Dihydrate]
-- reply 5.8

-- ask Okay, and CCO.CCOC(=O)[C@@H](N)Cc1ccc(O)c(O)c1.CCOC(=O)[C@@H](N)Cc1ccc(O)c(O)c1.O=C(O)CCCCC(=O)O [Example 21, LDEE Adipate Ethanolate] ?
-- reply 6

-- ask Next compound up: CCO.CCOC(=O)[C@@H](N)Cc1ccc(O)c(O)c1.O=C(O)/C=C\C(=O)O [Example 28, LDEE Maleate Ethanolate]
-- reply 6.4

-- ask Next record, please: CCOC(=O)[C@@H](N)Cc1ccc(O)c(O)c1.CCOC(=O)[C@@H](N)Cc1ccc(O)c(O)c1.O.O.O=C(O)/C=C/C(=O)O [Example 25, LDEE Fumarate Dihydrate]
-- reply 5.5
